System: anti-CR2 SCR1-2 monoclonal antibody 171
testDetails: MBP-CR2 SCR1-2-171 mAb ELISA
Assay type: binding
conditionDescription: mutant MBP-CR2 SCR1-2 relative to wild-type; plate-bound 171 mAb
endpointName: % 171 mAb Binding (%)
Give bare numbers, in %.

Fill in the blank: the reported % 171 mAb Binding of K67A: single-site mutant of recombinant MBP-CR2 SCR1-2 (protein, left off: large carriers; small tags and cut ends) ISCGSPPPILNGRISYYSTPIAVGTVIRYSCSGTFRLIGEKSLLCITKDKVDGTWDKPAPKCEYFNAYSSCPEPIVPGGYKIRGSTPYRHGDSVTFACKTNFSMNGNKSVWCQANNMWGPTRLPTCVSVFPLE is ____.
87.7

# next molecule below
I'd like to know its % 171 mAb Binding. The molecule in question is S32A: single-site mutant of recombinant MBP-CR2 SCR1-2 (protein, left off: large carriers; small tags and cut ends) ISCGSPPPILNGRISYYSTPIAVGTVIRYSCAGTFRLIGEKSLLCITKDKVDGTWDKPAPKCEYFNKYSSCPEPIVPGGYKIRGSTPYRHGDSVTFACKTNFSMNGNKSVWCQANNMWGPTRLPTCVSVFPLE
77.5
